Property: Kd; scope: individual binders
molecular target: T1, PD-1 molecule (refolded, purified and biotinylated PD-1 of Example 2) (UniProt Q15116 33-150, biotinylated with BirA enzyme (site not stated)); experiment: SPR (BIAcore T200), single-cycle kinetics; biotinylated PD-1 captured via streptavidin, PDL-1 variant in solution
T1 construct: also called Programmed Death-1
T1 sequence (Q15116 33-150 limits assumed): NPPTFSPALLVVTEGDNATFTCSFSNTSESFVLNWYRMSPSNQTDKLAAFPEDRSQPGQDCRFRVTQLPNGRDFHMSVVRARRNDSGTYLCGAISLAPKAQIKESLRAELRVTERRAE
Record the value in nM, omitting the unit from your answer.

Solved entries:
BINDER	REPORTED VALUE
high affinity PDL-1 molecule L2B6 (ligand) FTVTVPKDLYVVEYGSNMTIECKFPVEKQLDLAALEVHWFMEDKNIVSFVHGEEDLKVQHSSYRQRARLLKDQLSLGNAALQITDVKLQDAGVYRCMISYGGADYKRITVKVNAPYNKINQRIRVVDPVTSEHELTCQAEGYPKAEVIWTSSDHQVLSGKTTTTNSKREEKLFNVTSTLRINTTTNEIFYCTFRRLDPEENHTAELVIPEL	10300
high affinity PDL-1 molecule L3B3C (ligand) WTVTVPKDLYVVEYGSNMTIECKFPVEKQLDLAALQVFWMMEDKNIVSFVHGEEDLKVQHSSYRQRARLLKDQLSLGNAALQITDVKLQDAGVYVCLIAYKGADYKRITVKVNAPYNKINQRILVVDPVTSEHELTCQAEGYPKAEVIWTSSDHQVLSGKTTTTNSKREEKLFNVTSTLRINTTTNEIFYCTFRRLDPEENHTAELVIPEL	648

Note: attention shifts to another entry.
Req: Return the recorded Kd value; entry: high affinity PDL-1 molecule L3C7 (ligand) FTVTVPKDLYVVEYGSNMTIECKFPVEKQLDLAALEVHWFMEDKNIIQFVHGEEDLKVQHSSYRQRARLLKDQLSLGNAALQITDVKLQDAGVYTCLIGYKGADYKRITVKVNAPYNKINQRILVVDPVTSEHELTCQAEGYPKAEVIWTSSDHQVLSGKTTTTNSKREEKLFNVTSTLRINTTTNEIFYCTFRRLDPEENHTAELVIPEL
Resp: 750
